Cited source for all entries: patent US20140112930A1

Items are presented alongside their recorded T1/2.
target: T1, Dimeric Monkey Ang-2FD conjugated to human IgG1 (monkey (Macca fascicularis); human); test: SPR, captured Ab, RT
T1 construct: also called Monkey Ang-2FD-hFc
T1 sequence (chain, as listed by the source limits assumed): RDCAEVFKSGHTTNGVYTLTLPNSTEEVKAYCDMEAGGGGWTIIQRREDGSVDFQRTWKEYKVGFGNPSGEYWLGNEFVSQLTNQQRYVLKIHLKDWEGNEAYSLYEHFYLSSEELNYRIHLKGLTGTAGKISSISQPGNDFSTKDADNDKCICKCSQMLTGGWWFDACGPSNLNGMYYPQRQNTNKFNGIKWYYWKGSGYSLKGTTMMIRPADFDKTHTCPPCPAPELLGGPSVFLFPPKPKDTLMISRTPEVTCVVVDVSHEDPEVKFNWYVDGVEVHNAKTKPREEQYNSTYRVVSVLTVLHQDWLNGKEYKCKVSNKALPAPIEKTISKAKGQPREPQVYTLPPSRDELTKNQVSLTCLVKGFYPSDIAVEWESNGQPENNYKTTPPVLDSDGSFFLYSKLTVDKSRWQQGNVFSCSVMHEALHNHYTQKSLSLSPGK
Express the result in h but write the number alone.

Worked cases, T1/2 given:
| binder | measuredMetric | resultValue |
| --- | --- | --- |
| H1H743N (antibody, V domains shown) VH: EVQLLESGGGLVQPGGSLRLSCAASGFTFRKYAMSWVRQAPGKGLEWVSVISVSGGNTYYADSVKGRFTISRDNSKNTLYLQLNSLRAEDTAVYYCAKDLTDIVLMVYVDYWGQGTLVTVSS VL: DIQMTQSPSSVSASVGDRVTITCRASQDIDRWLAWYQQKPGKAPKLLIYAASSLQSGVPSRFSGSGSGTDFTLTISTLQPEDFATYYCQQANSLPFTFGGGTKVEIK | T1/2 | 13 |
| H1H730N (antibody, V domains shown) VH: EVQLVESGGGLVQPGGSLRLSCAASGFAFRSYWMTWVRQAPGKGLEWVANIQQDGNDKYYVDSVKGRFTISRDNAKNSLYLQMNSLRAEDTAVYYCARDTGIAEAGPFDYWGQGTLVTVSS VL: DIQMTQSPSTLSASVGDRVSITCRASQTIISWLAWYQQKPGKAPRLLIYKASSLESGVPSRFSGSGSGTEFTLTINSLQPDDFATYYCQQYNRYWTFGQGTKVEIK | T1/2 | 1.45 |

Please report T1/2 for the following binder: H1H696P (antibody, V domains shown) VH: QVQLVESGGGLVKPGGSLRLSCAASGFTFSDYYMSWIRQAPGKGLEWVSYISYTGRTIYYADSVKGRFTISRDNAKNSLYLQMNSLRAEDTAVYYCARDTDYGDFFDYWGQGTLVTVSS VL: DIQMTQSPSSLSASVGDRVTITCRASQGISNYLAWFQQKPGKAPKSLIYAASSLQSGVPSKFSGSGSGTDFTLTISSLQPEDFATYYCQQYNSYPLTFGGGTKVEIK 0.61
